meta.source: PubChem BioAssay

- methodNotes: small-molecule binders of probe aNOTCH2, primary screen, biochemical, small-molecule microarray, 635/667 nm fluorescence (AID 1121);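 also: score merges feature fluorescence read at 667 nm with its signal to noise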
- settings: higher = more signal
Class t: composite z-score at least -0.008. Class f: composite z-score below -0.008.

Past entries and their recorded results:
[[record]]
compound = "COc1ccc([Si](C)(C)[C@H]2[C@H](CC(=O)N3Cc4ccccc4C[C@H]3CO)O[C@@]3(C(=O)N(Cc4cccc(N5C(=O)c6cccc7cccc5c67)c4)c4ccccc43)[C@@H]2C)cc1"
classification = "f"

[[record]]
compound = "CCOC(=O)C1=CC[C@@H](c2ccccc2)N(S(=O)(=O)c2ccc(C)cc2)[C@H]1C#N"
classification = "t"

[[record]]
compound = "CCCC=C(CCC)[C@@H](NC(=O)c1ccccc1)c1ccc(C(=O)OC)cc1"
classification = "f"

[[record]]
compound = "C=CCC(OC(C)=O)[C@@H]1[C@@H](N(Cc2ccc(-c3cccc(C(F)(F)F)c3)o2)C(=O)Cc2ccc(F)cc2)c2cc(OCCCO)ccc2N1C(=O)c1ccc2ccccc2c1 (some centres not stated)"
classification = "f"


Please indicate if the recorded composite z-score for `N[C@@H](Cc1ccccc1)Cn1cc(C2(O)CCCCC2)nn1` meets or exceeds -0.008.
f

Please indicate if the recorded composite z-score for N#Cc1ccc(C(O)C2C=CC3C(=O)N(c4ccccc4)C(=O)C3N2Nc2ccc([N+](=O)[O-])cc2)cc1 (configuration not stated) meets or exceeds -0.008.
t

====

- methodNotes: binders of probe aFGF10 on microarray, primary screen, stem cell growth factor project, biochemical, small-molecule microarray, fluorescence 635/667 (AID 1071);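 also: score merges 667 nm spot intensity and signal to noise from triplicate slides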
- settings: higher = more signal
observationType: composite z-score

[[record]]
compound = "CC(C)(C)OC(=O)CC[C@]1(C(N)=O)N=C(c2ccc(OCCCO)cc2)O[C@H]1c1ccccc1CN=[N+]=[N-]"
val = 0.873


For `[N-]=[N+]=NCc1ccccc1C[C@]1(C(=O)N2CCOCC2)N=C(c2ccc(OCCCO)cc2)O[C@H]1c1ccccc1CN=[N+]=[N-]` , what is its reported composite z-score?
0.88

For C=CCC(OC(C)=O)[C@@H]1[C@@H](N(Cc2cccc3ccccc23)C(=O)c2ccc(C)cc2)c2cc(OCCCO)ccc2N1C(=O)c1ccc2ccccc2n1 (stereo partly drawn) , what is its reported composite z-score?
0.238

====

- Test system: Lefty1
- methodNotes: Lefty1 binders on small-molecule microarrays, primary screen, biochemical, small-molecule microarray, 635/667 nm fluorescence (AID 1139)
- settings: small-molecule microarray binding, fluorescence 635/667; higher = more signal
Class Yes: composite z-score at least 0.9. Class No: composite z-score below 0.9.

Past entries and their recorded results:
[[record]]
compound = "CCCC[C@@H]1C[C@H]1[C@@H](NC(=O)Cc1ccccc1)c1ccc(Cl)cc1"
classification = "No"

[[record]]
compound = "CCN(CC)c1ccc(N2CC=CC34O[C@@H]5C=CCOC(=O)[C@@H]5[C@H]3C(=O)N(CCO)[C@@H]4C2=O)cc1 (stereo not given in full)"
classification = "No"

[[record]]
compound = "NC(=O)NCC#Cc1ccc2c(c1)[C@]1(C(=O)N2)[C@H](C(=O)N2CCCCCCC2)[C@H]2C(=O)O[C@H](c3ccccc3)[C@H](c3ccccc3)N2[C@@H]1c1ccc(O)cc1"
classification = "No"


Please indicate if the recorded composite z-score for C=CC(CO)NC(=O)OCC1c2ccccc2-c2ccccc21 (stereo not given) meets or exceeds 0.9.
No

Please indicate if the recorded composite z-score for C=CCC(OC(C)=O)[C@@H]1[C@@H](N(Cc2ccc(-c3ccccc3)cc2)C(=O)c2ccc(C)cc2)c2cc(OCCCO)ccc2N1C(=O)c1ccc2ccccc2c1 (stereo not given in full) meets or exceeds 0.9.
No

Please indicate if the recorded composite z-score for NC(=O)N1C(=O)C2C(C1=O)C1C=C(CCCO)C2C(c2ccc(CN3CCCC3)cc2)N1Cc1cccc(OC(F)(F)F)c1 (stereo not given) meets or exceeds 0.9.
Yes
